subject of test: EGFR(T790M/L858R) (Homo sapiens, UniProt P00533, L858R/T790M)
Construct: purchased BPS Bioscience 40322
assay: In vitro non-radioactive kinase assay, EGFR(T790M/L858R) Kinase Assay Kit (BPS Bioscience)
Assay type: biochemical
condition notes: compared with compound 4; five independent experiments
quantity: Activity on mutant EGFR in kinase assay (in words)

Cc1[nH]c2ccccc2c1C(Nc1cccc([N+](=O)[O-])c1)c1ccccc1 (stereo not shown)	lack of activity
COc1ccc(F)cc1C(Nc1cccc([N+](=O)[O-])c1)c1c(C)[nH]c2ccccc12 (stereo not shown)	lack of activity

---

subject of test: EGFR(T790M/L858R) (Homo sapiens, UniProt P00533, L858R/T790M)
Construct: purchased BPS Bioscience 40322
assay: In vitro non-radioactive kinase assay, EGFR(T790M/L858R) Kinase Assay Kit (BPS Bioscience)
Assay type: biochemical
condition notes: EGFR(T790M/L858R) Kinase Assay Kit; concentration inhibiting 50% enzyme activity; read-out: IC50 (μM) ± Std. Dev.
Lab note: compare IC50 with 100 µM, writing TRUE if less and FALSE if equal or more.

Known results for compounds:
Cc1[nH]c2ccccc2c1C(Nc1cccc([N+](=O)[O-])c1)c1cc(O)ccc1F (stereo not shown)	TRUE
O=[N+]([O-])c1cccc(NC(c2ccccn2)c2c[nH]c3ccccc23)c1 (stereo not shown)	TRUE
Cc1[nH]c2ccccc2c1C(Nc1cccc([N+](=O)[O-])c1)c1ncccc1O (stereo not shown)	TRUE
Cc1[nH]c2ccccc2c1C(Nc1cccc([N+](=O)[O-])c1)c1ccccc1O (stereo not shown)	TRUE
Cc1[nH]c2ccc(F)cc2c1C(Nc1cccc([N+](=O)[O-])c1)c1ccccn1 (stereo not shown)	FALSE
Cc1[nH]c2ccccc2c1C(Nc1cccc([N+](=O)[O-])c1)c1cc(F)ccc1O (stereo not shown)	TRUE

Would you kindly look at the next entry?
Req: Input Cc1[nH]c2ccccc2c1C(Nc1cccc([N+](=O)[O-])c1)c1ccccn1 (stereo not shown) ; condition: IC50 strictly below 100 µM. Does it hold?
Resp: FALSE
